Reference source for all entries: the array DNA melting data of Ke et al. (doi:10.1101/2024.01.08.574731)

test: folding enthalpy; higher = less favourable; fluorescence melt of hairpins on a sequencing array, two-state fit; conditions: sodium 0.088 M
Labels assigned by folding enthalpy range: bottom end: < -30 kcal/mol; midrange: ≥ -30 kcal/mol and < -20 kcal/mol; top end: ≥ -20 kcal/mol

Illustrative cases are given below, each with its answer.
| query.sequence | cat |
| --- | --- |
| GCCAAGACGAAAGTCGGC (((..(((....)))))) | midrange |
| GATCATCGGAATGATC ((((((....)))))) | bottom end |
| GCCCATCCGAAAGGAGGC (((..(((....)))))) | top end |

Here is the next item to consider.
Category lookup for the sequence GATCGCCGGAGCGATC ((((((....))))))
bottom end
